meta.source: patent US20210246200A1

For each entry below, report its ELISA value (Normal ELISA) value.
# target of assay: T1, Proleukin® (aldesleukin) (human, UniProt P60568 21-153, limits assumed)
# T1 construct: Variant of human wt IL-2 with C145S (C125S on mature IL-2); also called IL-2 (Proleukin®); human IL-2 (Proleukin)
# T1 sequence (P60568 other isoform, or with tags, fused parts or gaps limits assumed): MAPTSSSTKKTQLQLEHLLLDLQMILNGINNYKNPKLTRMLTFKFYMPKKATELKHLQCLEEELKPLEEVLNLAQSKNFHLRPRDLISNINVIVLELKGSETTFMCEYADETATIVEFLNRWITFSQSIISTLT
# test method notes: ELISA, coated Proleukin, HEK293F supernatant 1:2
Express the result in luminescence signal but write the number alone.

Query string: In one line, give reported ELISA value (Normal ELISA) of the entry Antibody No: 6 (antibody, human IgG1, kappa, N297A, V domains shown, VK WT; HEK293F supernatant) VH: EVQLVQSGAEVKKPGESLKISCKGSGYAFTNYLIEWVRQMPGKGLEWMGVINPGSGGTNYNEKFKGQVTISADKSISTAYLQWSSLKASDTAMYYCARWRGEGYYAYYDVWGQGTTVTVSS VL: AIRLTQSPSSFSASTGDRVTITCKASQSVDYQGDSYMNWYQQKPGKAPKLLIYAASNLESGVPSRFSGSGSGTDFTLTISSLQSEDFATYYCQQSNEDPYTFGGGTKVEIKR .
Result string: 5850

Query string: In one line, give reported ELISA value (Normal ELISA) of the entry Antibody No: 9 (antibody, human IgG1, kappa, N297A, V domains shown, VK A50T; HEK293F supernatant) VH: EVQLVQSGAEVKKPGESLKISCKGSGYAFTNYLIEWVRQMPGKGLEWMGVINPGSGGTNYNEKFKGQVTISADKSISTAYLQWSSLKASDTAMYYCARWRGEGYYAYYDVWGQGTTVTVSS VL: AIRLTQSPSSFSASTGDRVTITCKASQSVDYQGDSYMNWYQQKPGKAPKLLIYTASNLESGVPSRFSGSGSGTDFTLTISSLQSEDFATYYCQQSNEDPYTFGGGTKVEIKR .
Result string: 1940

Query string: In one line, give reported ELISA value (Normal ELISA) of the entry Antibody No: 34 (antibody, human IgG1, kappa, N297A, V domains shown, VK A50T; HEK293F supernatant) VH: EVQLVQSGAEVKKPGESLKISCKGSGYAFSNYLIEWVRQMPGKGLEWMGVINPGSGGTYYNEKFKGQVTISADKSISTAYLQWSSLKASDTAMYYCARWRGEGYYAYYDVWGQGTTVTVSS VL: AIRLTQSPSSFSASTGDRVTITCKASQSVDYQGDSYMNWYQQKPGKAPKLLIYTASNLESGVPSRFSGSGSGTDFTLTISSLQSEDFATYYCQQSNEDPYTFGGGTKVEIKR .
Result string: 3860
